Origin of measurements: PubChem BioAssay (NCI)

- Test system: K-562 leukemia
- ASSAY_REMARKS: NCI-60 one-dose screen, 48 h (100 = growth as untreated, 0 = no growth, -100 = all killed)
- REPORTED_CONDITIONS: 10 µM unless noted
The panel holds about 83,000 compounds, 20% with a hit somewhere; the sample as a whole holds those more often.
Quick rule for you: growth at 80% or higher means Criterion met, lower means Criterion not met.

IN: Is the recorded value of growth equal to or greater than 80% for this compound? N#Cc1cn(Cc2ccc(Cl)cc2Cl)c(C(=O)c2ccc(Br)cc2)c1N
OUT: Criterion met

IN: Is the recorded value of growth equal to or greater than 80% for this compound? CCc1cccc(NC(=O)CNc2cc(S(=O)(=O)N(C)C)cc(C)c2C)c1
OUT: Criterion met

IN: Is the recorded value of growth equal to or greater than 80% for this compound? C=CCn1c(SCC(=O)Nc2ccc(C(=O)/C=C/c3ccc(Br)cc3)cc2)nnc1-c1c[nH]c2ccccc12
OUT: Criterion not met

IN: Is the recorded value of growth equal to or greater than 80% for this compound? NC(N)=Nc1ccc(Oc2ccc(Nc3ccc(Cl)c(C(F)(F)F)c3)cc2)cc1
OUT: Criterion not met

IN: Is the recorded value of growth equal to or greater than 80% for this compound? Cc1ccc(-c2cc3nc(C(Cl)Cl)nc(C)n3n2)cc1
OUT: Criterion met

----------
Assignment: determine reported growth for the given compounds.
- System: NCI/ADR-RES ovarian
- ASSAY_REMARKS: NCI-60 one-dose screen, 48 h (100 = growth as untreated, 0 = no growth, -100 = all killed)
- REPORTED_CONDITIONS: 10 µM unless noted
- Method: Growth inhibition of the NCI/ADR-RES human […] tumor cell line is measured as a screen for anti-cancer activity. Cells are grown in 96 well plates and exposed to the test compound for 48 hours. Compounds are tested at a single concentration, which is 10^-5 M for most compounds. The reported endpoint is percent growth (GI% or GIPRCNT), where numbers from 0 - 100% represent growth inhibition, and numbers from -100% - 0 represent cell death. For example, a value of 40 represents 60% growth inhibition. […]
About 83,000 compounds went through this panel and 20% of them were active in at least one assay; those are over-represented in the sample as a whole.
The figure you give is taken to be in %; do not add the unit.

IN: Please report the measured growth for COC(=O)C(Cc1ccccc1)Nc1nc(NC(Cc2ccccc2)C(=O)OC)nc(N2CCOCC2)n1 (stereo not drawn)
OUT: 111

IN: Please report the measured growth for CCn1c(SCC(=O)Nc2cccc(C(=O)/C=C/c3cc(OC)c(OC)c(OC)c3)c2)nc2ccccc2c1=O
OUT: 14.1

IN: Please report the measured growth for CCCn1cnc2c(c1=N)C(c1ccc(OC)cc1)c1sc3c(CC)cccc3c1O2 (stereo not drawn)
OUT: 7.77

IN: Please report the measured growth for Cc1ccc(NC(=O)c2ccc(CN3CCN(C)CC3)cc2)cc1Oc1ccc(-c2[nH]nc3ncnc(N)c23)cc1
OUT: 100

IN: Please report the measured growth for Cn1ccnc1C(=O)/C=C/c1ccc(CNC(=O)c2ccc(Cl)cc2)cc1
OUT: 10.4

IN: Please report the measured growth for CCOc1ccccc1NC1=C(Cl)C(=O)c2nc(C)ccc2C1=O
OUT: -9.58

IN: Please report the measured growth for CN1CCN(Cc2ccc(NC(=O)c3cncc(C#Cc4cnc5ccc(N6CCN(C)CC6)nn45)c3)cc2C(F)(F)F)CC1
OUT: -31.3

IN: Please report the measured growth for COCCNc1ccc2ncc(C#Cc3cncc(C(=O)Nc4ccc(CN5CCN(C)CC5)c(C(F)(F)F)c4)c3)n2n1
OUT: 43.9

IN: Please report the measured growth for COc1ccc([C@@H]2c3[nH]c4ccccc4c3C[C@H]3C(=O)N(C4CCN(CC5CCCCC5)CC4)CC(=O)N23)c(OC)c1
OUT: 76.7

IN: Please report the measured growth for C=C(C=O)[C@@H]1CC[C@]2(COC(C)=O)CC[C@]3(C)C(CC[C@@H]4[C@@]5(C)CC[C@H](OC(C)=O)C(C)(C)[C@@H]5CC[C@]43C)[C@@H]12 (stereo partly drawn)
OUT: 1.48

IN: Please report the measured growth for O=C(Nc1ccc2c(ccn2Cc2ccccn2)c1)c1ccnnc1
OUT: 114

IN: Please report the measured growth for Cn1cc(-c2nnc(N)nc2-c2c[nH]c3ccc(F)cc23)c2cc(F)ccc21
OUT: 86.7

IN: Please report the measured growth for Cc1nn(-c2ccccc2)c2ncnc(N/N=C/c3cccc(O)c3)c12
OUT: 23.3

IN: Please report the measured growth for CC(=O)C1=C(C)NC(NN)=NC1c1cccc(Cl)c1 (stereo not drawn)
OUT: 107

IN: Please report the measured growth for N/C(=N\C(N)=N\c1nc2ccccc2s1)c1ccc2ccccc2c1
OUT: 30.3

IN: Please report the measured growth for C=C(C)[C@@H]1CC[C@]2(COCCCNCCC#N)CC[C@]3(C)[C@H](CC[C@@H]4[C@@]5(C)CC[C@H](OCCCNCCC#N)C(C)(C)[C@@H]5CC[C@]43C)[C@@H]12
OUT: 37.3

IN: Please report the measured growth for COc1cc2c(cc1OC)C(Sc1ccc(F)cc1)c1c(nc(N)c(C#N)c1N)O2 (stereo not drawn)
OUT: -46.4

IN: Please report the measured growth for NS(=O)(=O)c1ccc(Nc2nc(N/N=C/c3c[nH]c4ccccc34)nc(Nc3ccccc3)n2)cc1
OUT: 93.5
